# Assay name: activators of APP 5'UTR luciferase reporter, primary screen, SH-SY5Y cells (AID 1276)
# Experimental setup: SH-SY5Y APP 5'UTR luciferase reporter, luminescence; at 2 µM; zero percent = DMSO vehicle wells
About 2,000 (1.1%) of roughly 190,000 compounds were called active.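 Rule for the calls: active = activation above a set limit, based on mean plus 3 SD of controls (cut at about 140% in these data); inconclusive = one replicate above the limit, the other below; inactive = the rest.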 Many of the other results were omitted from the sample, so actives are more common in it than they were.
Outcome codes: active, inactive

CCC1(C(=O)c2ccccc2)C(c2cccc([N+](=O)[O-])c2)C1(C(=O)OC)C(=O)OC (stereo unspecified) ... inactive
Cc1cc([N+](=O)[O-])ccc1NC1CCCC1 ... inactive
Fc1ccc2nc(N3CCCCC3)sc2c1 ... inactive
COCCNC(=S)Nc1cc(S(=O)(=O)N2CCOCC2)ccc1N1CCCCC1 ... inactive
CCCCOc1ccc(C(=O)NCC(=O)OCC(=O)N2CCN(S(=O)(=O)c3ccc(C)cc3C)CC2)cc1 ... inactive
COC(c1ccccc1)c1nnc(CCC(=O)N2CCN(CCOc3ccccc3)CC2)o1 (stereo unspecified) ... inactive
COc1cc(Cl)c(C)cc1NC(=O)[C@@H]1CCCN1C(=O)c1cccs1 ... inactive
O=C(CN1CCN(c2ccccn2)CC1)N1CCc2ccccc21 ... inactive
Cc1nc(SCC(=O)Nc2cc(C)on2)c2c3c(sc2n1)CCCC3 ... inactive
O=C(/C=C\c1cn(-c2ccccc2)nc1-c1cccs1)N1CCOCC1 ... inactive
COc1ccc(C2CC(c3ccccc3)=NN2C(=O)COC(=O)COc2ccccc2)cc1 (stereo unspecified) ... inactive
O=C(Nc1ccc2c(c1)OCCO2)c1ccc(Cl)c(S(=O)(=O)N2CCCCC2)c1 ... inactive
CCCCc1nnc(NC(=O)CSc2nc(N)cc(=O)[nH]2)s1 ... inactive
CCOC(=O)c1ccccc1NC(=O)CSc1nc2ccccc2c(=O)[nH]1 ... inactive
c1ccc(-c2noc(-c3cccs3)n2)nc1 ... active
CCc1nnc(NC(=O)CCC(=O)O)s1 ... inactive
COc1ccc(CN(C)C(C)C(=O)NC2CCCc3ccccc32)cc1 (stereo unspecified) ... inactive
CC(NC(=O)CSc1nc2c(cc1C#N)CN(C)CC2)c1ccccc1 (stereo unspecified) ... inactive
c1csc(-c2nc(-c3ccncc3)no2)c1 ... inactive
COc1ccc(C)cc1NC(=O)CSc1nc(SC)ns1 ... inactive
COc1ccc(N2C(=O)CC(Sc3n[nH]c(-c4ccc(C)cc4)n3)C2=O)cc1 (stereo unspecified) ... inactive
O=C(NC1CC1)C1CCCN(C(=O)NC2CCCCC2)C1 (stereo unspecified) ... inactive
O=C(O)c1ccc(N/N=C/c2cn(-c3ccccc3)nc2-c2cccs2)cc1 ... active
COc1ccc(-c2nn3c(-c4ccccc4)nnc3s2)cc1OC ... inactive
O=C(NNS(=O)(=O)c1ccc(F)cc1)c1cnccn1 ... inactive
CCOc1ccccc1N1CCN(C(=S)Nc2ccc(S(N)(=O)=O)cc2)CC1 ... inactive
C/C(=N/NC(=O)CCc1ccccc1)c1ccco1 ... inactive
Cc1c(C2=CCN(S(=O)(=O)c3ccc(Cl)cc3)CC2)c2ccccc2n1C ... inactive
O=C(Nc1cccc(S(=O)(=O)Nc2ccc(Cl)cc2)c1)c1ccc2c(c1)OCCO2 ... inactive
NC1=NC(=O)C(Cc2cccc(Cl)c2)S1 (stereo unspecified) ... inactive
CC(O)C(NS(=O)(=O)c1ccc(Cl)cc1)C(=O)OCc1cc([N+](=O)[O-])cc2c1OCOC2 (stereo unspecified) ... inactive
COC(=O)c1sc(NC(=O)c2ccc(OC)cc2OC)nc1C ... active
CC1CCCC(NC(=O)COC(=O)[C@@H]2CC(O)CN2S(=O)(=O)c2ccc3c(c2)OCCO3)C1C (stereo partly specified) ... inactive
O=C(CN1CCN(c2ncccn2)CC1)Nc1ccccc1C(F)(F)F ... inactive
CCc1ccc(-c2cc(C(=O)NN3CCN(C)CC3)c3ccccc3n2)cc1 ... inactive
Cc1ccc(S(=O)(=O)/N=C(/Nc2ccc3[nH]c(=O)[nH]c3c2)c2ccccc2)cc1 ... inactive
O=C(Nc1ccc(Cl)cn1)c1ccc2c(c1)OCCO2 ... active
CCn1ccnc1CN(C)Cc1nc(-c2ccc3c(c2)OCO3)no1 ... inactive
Cc1csc(SCC(=O)Nc2sccc2C#N)n1 ... active
Clc1ncn(CCOc2ccccc2)c1Cl ... inactive
Cc1cc(NC(=O)CSc2nc3c(cc2C#N)CCCCC3)no1 ... active
O=C(O)/C=C/c1cn(-c2ccccc2)nc1-c1cccs1 ... inactive
CCc1ccc(NC2Nc3cc(C)nn3S2)cc1 (stereo unspecified) ... active
O=C(N/N=C/c1cc2c(cc1Br)OCO2)C1COc2ccccc2O1 (stereo unspecified) ... inactive
Cc1ccnc(Nc2nc3ccccc3s2)n1 ... inactive
CSc1ncccc1C(=O)Nc1nc2ccc(F)cc2s1 ... inactive

Reference source: PubChem BioAssay AID1276
